Values from patent US20260193264A1

Target: HiBit-BRG1 fusion protein in stable HeLa cell line expressing HiBit-BRG1 and LgBit (Homo sapiens)
Construct: expressed in transfected cells
Sequence (P51532 whole entry, the tested form may be a part): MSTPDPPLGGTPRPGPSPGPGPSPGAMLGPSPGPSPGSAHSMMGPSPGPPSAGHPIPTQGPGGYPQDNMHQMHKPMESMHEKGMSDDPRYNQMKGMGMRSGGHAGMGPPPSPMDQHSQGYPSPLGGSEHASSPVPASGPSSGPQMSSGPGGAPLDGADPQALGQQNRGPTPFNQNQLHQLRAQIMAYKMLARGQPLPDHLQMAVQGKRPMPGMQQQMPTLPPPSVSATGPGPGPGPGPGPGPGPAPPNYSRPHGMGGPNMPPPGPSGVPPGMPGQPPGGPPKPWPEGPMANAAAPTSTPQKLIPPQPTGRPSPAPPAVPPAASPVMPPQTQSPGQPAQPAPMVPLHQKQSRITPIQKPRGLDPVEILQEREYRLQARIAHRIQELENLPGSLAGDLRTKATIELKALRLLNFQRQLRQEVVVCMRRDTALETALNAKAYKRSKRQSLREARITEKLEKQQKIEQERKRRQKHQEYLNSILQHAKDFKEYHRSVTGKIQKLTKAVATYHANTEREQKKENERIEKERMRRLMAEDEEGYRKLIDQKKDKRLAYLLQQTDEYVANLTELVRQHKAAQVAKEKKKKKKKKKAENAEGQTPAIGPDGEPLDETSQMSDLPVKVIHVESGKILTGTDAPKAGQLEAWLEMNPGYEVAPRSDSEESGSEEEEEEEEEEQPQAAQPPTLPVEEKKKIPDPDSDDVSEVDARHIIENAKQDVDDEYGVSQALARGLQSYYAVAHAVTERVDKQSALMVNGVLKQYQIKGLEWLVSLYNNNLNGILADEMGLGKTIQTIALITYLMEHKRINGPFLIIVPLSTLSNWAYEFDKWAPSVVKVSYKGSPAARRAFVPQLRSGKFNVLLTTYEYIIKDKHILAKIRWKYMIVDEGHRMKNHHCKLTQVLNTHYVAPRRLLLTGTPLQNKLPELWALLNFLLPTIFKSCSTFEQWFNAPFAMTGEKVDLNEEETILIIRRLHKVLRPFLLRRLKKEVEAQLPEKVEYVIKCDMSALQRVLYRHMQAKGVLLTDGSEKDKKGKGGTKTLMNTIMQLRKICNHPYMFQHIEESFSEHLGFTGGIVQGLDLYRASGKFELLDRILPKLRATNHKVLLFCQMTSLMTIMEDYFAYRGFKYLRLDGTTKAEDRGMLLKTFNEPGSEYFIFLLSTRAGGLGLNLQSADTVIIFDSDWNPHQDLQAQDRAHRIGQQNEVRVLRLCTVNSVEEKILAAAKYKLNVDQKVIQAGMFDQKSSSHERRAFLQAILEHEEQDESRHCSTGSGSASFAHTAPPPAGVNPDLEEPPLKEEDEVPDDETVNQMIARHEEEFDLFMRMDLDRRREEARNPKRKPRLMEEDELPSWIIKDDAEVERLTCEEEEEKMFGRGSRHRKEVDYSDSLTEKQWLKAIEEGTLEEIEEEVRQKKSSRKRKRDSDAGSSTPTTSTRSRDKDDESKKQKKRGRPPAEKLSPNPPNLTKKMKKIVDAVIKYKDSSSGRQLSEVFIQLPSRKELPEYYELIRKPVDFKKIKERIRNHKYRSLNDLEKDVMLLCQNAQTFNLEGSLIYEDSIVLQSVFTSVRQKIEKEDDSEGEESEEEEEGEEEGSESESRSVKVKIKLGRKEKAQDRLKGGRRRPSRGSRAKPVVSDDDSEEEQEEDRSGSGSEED
Test: HiBiT-BRG1 cell-based degradation assay (Nano-Glo HiBiT, 24 h)
Details: HeLa HiBit-BRG1/LgBit cells, top dose 30 μM, read-out: BRG1 HiBit Degradation Maximum (%)
measurementKind: Dmax

Worked cases, Dmax given:
# Dmax (compound: Cc1ncsc1-c1ccc([C@H](C)NC(=O)[C@@H]2C[C@@H](O)CN2C(=O)[C@H](C(C)C)n2cc(-c3cc4cc(-c5ccccc5O)nnc4cc3C#N)nn2)cc1 [Compound 170] ) is < 50%

# Dmax (compound: Cc1ncsc1-c1ccc([C@H](C)NC(=O)[C@@H]2C[C@@H](O)CN2C(=O)[C@@H](c2cc(N3CC4(CCN(c5ccc6cc(-c7ccccc7O)nnc6c5)CC4(F)F)C3)no2)C(C)C)cc1 [Compound 105] ) is > 75%

# Dmax (compound: Cc1ncsc1-c1ccc([C@H](C)NC(=O)[C@@H]2C[C@@H](O)CN2C(=O)[C@H](C(C)C)n2cc(-c3ccc4nnc(-c5ccccc5O)cc4c3)nn2)cc1 [Compound 128] ) is > 75%

# Dmax (compound: Cc1ncsc1-c1ccc([C@H](C)NC(=O)[C@@H]2C[C@@H](O)CN2C(=O)[C@@H](c2cc(-c3cnc(N4CC(c5ccc6nnc(-c7ccccc7O)cc6c5)C4)nc3)no2)C(C)C)cc1 [Compound 4] ) is > 75%

# Dmax (compound: Cc1ncsc1-c1ccc([C@H](C)NC(=O)[C@@H]2C[C@@H](O)CN2C(=O)C(C(C)C)n2cc(N3CCC4(CC3)CCN4c3ccc4nnc(-c5ccccc5O)cc4c3)nn2)cc1 (stereo partly shown) [Compound 278] ) is > 50%

Below are 8 compounds. Give each one its Dmax.
1. Cc1ncsc1-c1ccc([C@H](C)NC(=O)[C@@H]2C[C@@H](O)CN2C(=O)[C@H](C(C)C)n2cc(N3CCN4CCN(c5ccc6nnc(-c7ccccc7O)cc6c5)CC4C3)nn2)cc1 (stereo partly shown) [Compound 214]
2. Cc1ncsc1-c1ccc([C@H](C)NC(=O)[C@@H]2C[C@@H](O)CN2C(=O)[C@@H](c2cc(-c3cnc(N4CCN(c5ccc6cc(-c7ccccc7O)nnc6c5)CC4)nc3)no2)C(C)C)cc1 [Compound 40]
3. Cc1ncsc1-c1ccc([C@H](C)NC(=O)[C@@H]2C[C@@H](O)CN2C(=O)[C@@H](c2cc(N3CCOC4(CN(c5ccc6cc(-c7ccccc7O)nnc6c5)C4)C3)no2)C(C)C)cc1 [Compound 162]
4. Cc1ncsc1-c1ccc([C@H](C)NC(=O)[C@@H]2C[C@@H](O)CN2C(=O)C(C(C)C)n2cc(N3CCC4(CCN(c5ccc6cc(-c7ccccc7O)nnc6c5)CC4)C3)nn2)cc1 (stereo partly shown) [Compound 233]
5. Cc1ncsc1-c1ccc([C@H](C)NC(=O)[C@@H]2C[C@@H](O)CN2C(=O)[C@@H](c2cc(C3CC4(C3)CN(c3ccc5nnc(-c6ccccc6O)cc5c3)C4)no2)C(C)C)cc1 (single isomer, unassigned) [Compound 200]
6. Cc1ncsc1-c1ccc([C@H](C)NC(=O)[C@@H]2C[C@@H](O)CN2C(=O)[C@@H](c2cc(-c3cnc(N4CC(c5cc6nnc(-c7ccccc7O)cc6cc5Cl)C4)nc3)no2)C(C)C)cc1 [Compound 32]
7. Cc1ncsc1-c1ccc([C@H](C)NC(=O)[C@@H]2C[C@@H](O)CN2C(=O)[C@@H](c2cc(N3CCC(C(=O)N4CC(c5ccc6cc(-c7ccccc7O)nnc6c5)C4)CC3)no2)C(C)C)cc1 [Compound 45]
8. CC(C)C(C(=O)N1C[C@H](O)C[C@H]1C(=O)N[C@@H](C)c1ccc(C#N)cc1)c1cc(N2CC3(CN(c4ccc5cc(-c6ccccc6O)nnc5c4)C3)C2)no1 (stereo partly shown) [Compound 112]

["> 50%", "< 50%", "> 75%", "> 75%", "> 75%", "< 50%", "> 75%", "> 50%"]

Below are 2 compounds. Give each one its Dmax.
1. Cc1ncsc1-c1ccc([C@H](C)NC(=O)[C@@H]2C[C@@H](O)CN2C(=O)[C@@H](c2cc(N3CCC4(CC[C@@H](c5ccc6nnc(-c7ccccc7O)cc6c5)C4)CC3)no2)C(C)C)cc1 [Compound 76]
2. CCOc1cc2cc(-c3ccccc3O)nnc2cc1N1CC2(CN(c3cc([C@H](C(=O)N4C[C@H](O)C[C@H]4C(=O)N[C@@H](C)c4ccc(-c5scnc5C)cc4)C(C)C)on3)C2)C1 [Compound 237]

1: > 75%; 2: > 75%

Below are 4 compounds. Give each one its Dmax.
1. CC(C)[C@@H](C(=O)N1C[C@H](O)C[C@H]1C(=O)NCc1ccccc1)c1cc(N2CC3(CN(c4ccc5cc(-c6ccccc6O)nnc5c4)C3)C2)no1 [Compound 111]
2. CC(C)[C@@H](C(=O)N1C[C@H](O)C[C@H]1C(=O)N[C@@H](C)c1ccc(C#N)cc1)n1cc(N2CC3(CN(c4ccc5cc(-c6ccccc6O)nnc5c4)C3)C2)nn1 [Compound 202]
3. Cc1ncsc1-c1ccc([C@H](C)NC(=O)[C@@H]2C[C@@H](O)CN2C(=O)[C@H](c2cc(N3CCC4(CC3)CC(c3ccc5cc(-c6ccccc6O)nnc5c3)C4)no2)C(C)C)cc1 [Compound 25]
4. Cc1ncsc1-c1ccc([C@H](C)NC(=O)[C@@H]2C[C@@H](O)CN2C(=O)[C@@H](c2cc(N3CC4(C3)CN(c3cc5nnc(-c6cccc(F)c6O)cc5cc3C3CC3)C4)no2)C(C)C)cc1 [Compound 180]

["< 50%", "> 50%", "< 50%", "< 50%"]
